The measurements presented in this section are drawn from patent US10759809B2.

# Test system: Kunming mice
# Test Protocol: animal or person
# Assay type: in vivo
# Protocol Conditions: Mus musculus, po, 1 h
Structures can show the parent of a compound that is named as a salt.

{"columns": ["Compound", "ED50 [mg/kg]"],
 "data": [
  ["CO[C@]12CC[C@@]3(C[C@@H]1[C@](C)(O)C(C)(C)C)[C@H]1Cc4ccc(O)c5c4[C@@]3(CCN1CC1CC1)[C@H]2O5 [buprenorphine•HCl, reference compound]", 11.8],
  ["[2H]c1c([2H])c2c3c(c1O)O[C@H]1[C@@]4(OC)CC[C@@]5(C[C@@H]4[C@](C)(O)C(C)(C)C)[C@@H](C2)N(C([2H])([2H])C2CC2)CC[C@]315 [I6•HCl]", 5.83],
  ["[2H]C1C([2H])[C@]23C[C@H]([C@](C)(O)C(C)(C)C)[C@@]1(OC)C1Oc4c(O)ccc5c4[C@@]12CCN(CC1CC1)[C@@H]3C5 (some centres unmarked) [I7•HCl]", 12],
  ["[2H]c1c([2H])c2c3c(c1O)O[C@H]1[C@@]4(OC)CC[C@@]5(C[C@@H]4[C@](C)(O)C(C)(C)C)[C@@H](C2)N(CC2CC2)CC[C@]315 [I5•HCl]", 8.02],
  ["[2H]C([2H])(C1CC1)N1CC[C@]23c4c5ccc(O)c4O[C@H]2[C@@]2(OC)CC[C@@]3(C[C@@H]2[C@](C)(O)C(C)(C)C)[C@H]1C5 [I1•HCl]", 6.54]
]}
